Assay: Clinical study of immediate-release tozadenant: treatment-emergent adverse events, Cmax and Css (Table 18)
Format: in vivo, human
Details: human, plasma, 120 mg, 120 BID, immediate-release formulation; read-out: Cmax (ng/mL) at Day 14
measureName: Cmax (ng/mL)
Answers are plain numbers, in ng/mL.

Q: # return recorded Cmax for input COc1ccc(N2CCOCC2)c2sc(NC(=O)N3CCC(C)(O)CC3)nc12
Result: 2970

###

Experiment: Clinical study of immediate-release tozadenant: treatment-emergent adverse events, Cmax and Css (Table 18)
Format: in vivo, human
Settings: human, plasma, 240 mg, 240 BID, immediate-release formulation
measureName: concentration at 14 day (ng/mL)
Give bare numbers, in ng/mL.

Q: # return recorded concentration at 14 day for input COc1ccc(N2CCOCC2)c2sc(NC(=O)N3CCC(C)(O)CC3)nc12
Result: 4810

###

Experiment: Clinical study of immediate-release tozadenant: treatment-emergent adverse events, Cmax and Css (Table 18)
Assay type: in vivo, human
Details: human, plasma, 480 mg, 480 QD, immediate-release formulation
Protocol: Advantages of controlled-release formulations compared to immediate-release formulations include: lower incidence of adverse events; improved tolerability; reduced frequency of dosing; and improved compliance due to reduced frequency of dosing. An example of an efficacious dose of tozadenant is 120 mg of an immediate-release formulation administered twice a day (BID). […] Thus, a CR formulation could be designed to achieve an efficacious Css lower than the plasma levels (Cmax) that result in AEs. […]
measureName: concentration at 14 day (ng/mL)
Numbers only, in ng/mL.

Q: # return recorded concentration at 14 day for input COc1ccc(N2CCOCC2)c2sc(NC(=O)N3CCC(C)(O)CC3)nc12
Result: 3500

###

Assay: Treatment-emergent adverse events and tozadenant plasma Cmax by dose in patients (Table 19)
Type: in vivo, human
Settings: human, oral; 120 mg BID; plasma; read-out: Cmax (ng/mL) at ~5 hr postdose at Day 1
measureName: Cmax (ng/mL)
One number for each entry, in ng/mL.

Q: # return recorded Cmax for input COc1ccc(N2CCOCC2)c2sc(NC(=O)N3CCC(C)(O)CC3)nc12
Result: 680

###

Assay: Treatment-emergent adverse events and tozadenant plasma Cmax by dose in patients (Table 19)
Type: in vivo, human
Conditions: human, oral; 240 mg BID; plasma; read-out: Cmax (ng/mL) at ~5 hr postdose at Day 1
Text: Table 19 summarizes the dose response of AEs observed in patients taking tozadenant alongside the plasma Cmax. A clear trend of increasing AEs and discontinuation of therapy is seen with doses that result in higher tozadenant Cmax. A controlled-release formulation can be used to achieve the drug levels (Css) that are therapeutically effective while avoiding the high plasma Cmax and AEs associated with high doses of an IR formulation.
measureName: Cmax (ng/mL)
Numbers only, in ng/mL.

Q: # return recorded Cmax for input COc1ccc(N2CCOCC2)c2sc(NC(=O)N3CCC(C)(O)CC3)nc12 [tozadenant]
Result: 1150

###

Experiment: Treatment-emergent adverse events and tozadenant plasma Cmax by dose in patients (Table 19)
Type: in vivo, human
Conditions: human, oral; 120 mg BID; maximum plasma concentration in group of 63-75 patients, time since last dose unknown
measureName: Cmax at 6 week (ng/mL)
Give bare numbers, in ng/mL.

Q: # return recorded Cmax at 6 week for input COc1ccc(N2CCOCC2)c2sc(NC(=O)N3CCC(C)(O)CC3)nc12
Result: 3910

###

Test: Clinical study of immediate-release tozadenant: treatment-emergent adverse events, Cmax and Css (Table 18)
Type: in vivo, human
Settings: human, plasma, 240 mg, 240 QD, immediate-release formulation; read-out: Cmax (ng/mL) at Day 14
measureName: Cmax (ng/mL)
Answers are plain numbers, in ng/mL.

Q: # return recorded Cmax for input COc1ccc(N2CCOCC2)c2sc(NC(=O)N3CCC(C)(O)CC3)nc12
Result: 3440

###

Assay: Clinical study of immediate-release tozadenant: treatment-emergent adverse events, Cmax and Css (Table 18)
Format: in vivo, human
Details: human, plasma, 480 mg, 480 QD, immediate-release formulation; read-out: Cmax (ng/mL) at Day 14
measureName: Cmax (ng/mL)
Answers are plain numbers, in ng/mL.

Q: # return recorded Cmax for input COc1ccc(N2CCOCC2)c2sc(NC(=O)N3CCC(C)(O)CC3)nc12 [tozadenant]
Result: 5120

The measurements presented in this section are drawn from patent US10653699B2.
